# tested-system: CDK2/Cyclin E (Homo sapiens)
# Construct: The open reading frames of CDK2 and Cyclin E were isolated by reverse transcriptase-PCR
# test-details: in vitro kinase assay, Scintillation Proximity Assay (SPA), [γ-33-P]-ATP incorporation into GST-Rb
# test-context: GST-Rb substrate, 0.2 μM ATP, 60 minutes room temperature, read-out: CDK2 inhibitory activity IC50
pIC50: −log10 of the molar value.

{"molecule": "Cc1ncc(-c2ccnc(Nc3ccc(C(=O)N4CCOCC4)cc3)n2)n1C(C)C [Example 14]", "pIC50": 8.52}

Hey, just so you know, these numbers are from patent US20080280906A1.
